Provenance of the data: PubChem BioAssay (NCI)

- Tested on: A549/ATCC NSCLC
- experimental.protocol: NCI-60 one-dose screen, 48 h
- test.parameters: 10 µM unless noted
- Protocol: Growth inhibition of the A549/ATCC human Non-Small Cell Lung tumor cell line is measured as a screen for anti-cancer activity. Cells are grown in 96 well plates and exposed to the test compound for 48 hours. Compounds are tested at a single concentration, which is 10^-5 M for most compounds. The reported endpoint is percent growth (GI% or GIPRCNT), where numbers from 0 - 100% represent growth inhibition, and numbers from -100% - 0 represent cell death. […]
Compounds without any hit were thinned out: in the full panel of roughly 83,000, 20% have a hit. Active and inactive are the calls of the source. How the source made its calls: active means growth percent below 10; inactive means the rest.
Outcome codes: active, inactive

- molecule: "O=c1[nH]c(=S)[nH]c2nc[nH]c12"
  category.label: "inactive"
- molecule: "COC(=O)[C@]12CC[C@@H](C)[C@H](C)[C@@H]1C1=CC[C@@H]3[C@@]4(C)C[C@@H](OC(C)=O)[C@H](O)[C@@](C)(CO)[C@@H]4[C@H](O)C[C@@]3(C)[C@]1(C)CC2"
  category.label: "active"
- molecule: "Brc1ccc(Cn2nnnc2-c2ccn(-c3ccccc3)n2)cc1"
  category.label: "inactive"
- molecule: "O=C1c2cc3c(cc2-c2c1c1ccc(Cl)cc1c(=O)n2C[C@H](O)[C@@H](O)[C@H](O)CO)OCO3"
  category.label: "active"
- molecule: "O=C1c2ccccc2C(=Cc2ccccc2)c2ccccc21"
  category.label: "inactive"
- molecule: "COc1ccc(C(=O)/C=C/c2cc(-c3cc(OC)c(OC)c(OC)c3)n[nH]2)cc1OC"
  category.label: "inactive"
- molecule: "N=c1c(S(=O)(=O)c2ccccc2)cc2c(=O)n3ccccc3nc2n1C1CCCC1"
  category.label: "inactive"
- molecule: "COc1ccc(/C=C(\\C#N)c2cc3ccccc3n2C(C)=O)cc1"
  category.label: "inactive"
- molecule: "C/C(=N\\Nc1cc(C)c2cc(C)ccc2n1)c1ccccn1"
  category.label: "active"
- molecule: "CC(=O)c1c(C)[nH]c(-c2nc3ccc(N4CCN(C)CC4)cc3[nH]2)c1-c1ccc(N(C)C)cc1"
  category.label: "inactive"
- molecule: "CC(=O)N1N=C(c2ccc(C)cc2)CC1c1ccc(Oc2ccc(Br)cc2)cc1 (stereo unspecified)"
  category.label: "inactive"
- molecule: "N#Cc1c(-c2ccco2)nc2c(c(-c3ccccc3)nn2-c2ccccc2)c1-c1ccc(O)cc1"
  category.label: "inactive"
- molecule: "N=C(N)N=Nc1ccc(O)cc1"
  category.label: "inactive"
- molecule: "COc1ccc2c3c(c4ccccc4cc13)C(=O)N(CCN(C)CCN)C2=O"
  category.label: "active"
- molecule: "COc1ccc(-c2nc3ccccn3c2-c2nc3ccc(Cl)cc3[nH]2)cc1"
  category.label: "inactive"
- molecule: "Cc1oc(-c2ccccc2Cl)cc1C(=O)Nc1ccc(S(N)(=O)=O)cc1"
  category.label: "inactive"
- molecule: "CC(C)/C=C/CC[C@](C)(O)[C@H]1CC[C@]2(C)[C@@H]1CC[C@@H]1[C@@]3(C)C/C(=C/c4cccc(C(F)(F)F)c4)C(=O)C(C)(C)[C@@H]3CC[C@]12C"
  category.label: "inactive"
- molecule: "O=C1Nc2ccccc2/C1=C/c1cn(CCCn2c3ccccc3c(=O)c3ccccc32)c2ccccc12"
  category.label: "inactive"
- molecule: "CCc1ccccc1NC(=O)c1sc2nc3c(cc2c1N)CCCC3"
  category.label: "inactive"
- molecule: "c1ccc2c(-c3nc(-c4c[nH]c5ncccc45)cs3)c[nH]c2c1"
  category.label: "inactive"
- molecule: "O=C(NC1=CC(=O)c2ccccc2C1=O)c1ccccc1"
  category.label: "inactive"
